Data credit: paper PMC10120035

- target-system: BRC1 (His-BRC1) (Solanum lycopersicum (tomato), UniProt A0A3Q7HTP5 1-406)
- Sequence (A0A3Q7HTP5 entry or part of it): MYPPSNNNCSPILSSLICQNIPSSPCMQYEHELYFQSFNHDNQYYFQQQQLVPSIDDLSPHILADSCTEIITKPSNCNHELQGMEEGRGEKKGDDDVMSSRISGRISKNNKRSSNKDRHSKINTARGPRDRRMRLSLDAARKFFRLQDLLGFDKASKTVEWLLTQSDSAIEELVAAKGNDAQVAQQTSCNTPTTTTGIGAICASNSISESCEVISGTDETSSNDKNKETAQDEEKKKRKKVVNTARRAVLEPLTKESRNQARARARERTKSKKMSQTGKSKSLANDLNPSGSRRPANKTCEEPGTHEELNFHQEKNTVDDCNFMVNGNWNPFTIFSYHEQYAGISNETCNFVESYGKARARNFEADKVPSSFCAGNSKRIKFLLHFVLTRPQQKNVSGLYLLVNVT
- protocol: EMSA; Light Shift Chemiluminescent EMSA kit (Thermo 20148) per manufacturer; buffer, salt, pH and temperature not stated
- experimental-context: protein: recombinant; tags: His (pET-32a); chain copies: 2; label: 3' biotin (probe); blunt
measured-attribute: binding result

CKX7-A mut (dsDNA) DNA 1: CCCCGACATCTAAAGAGTAAACAAAAATATCAGATAAATCAAGAACA DNA 2: TGTTCTTGATTTATCTGATATTTTTGTTTACTCTTTAGATGTCGGGG; no binding
LOG4-A mut (dsDNA) DNA 1: AGTAATCCTATTAGAAAAATAAAAAATGGACCTTGCCTTACCTAC DNA 2: GTAGGTAAGGCAAGGTCCATTTTTTATTTTTCTAATAGGATTACT; no binding
LOG4-A WT (dsDNA) DNA 1: AGTAATCCTATTAGAAAAATGGGCCATGGACCTTGCCTTACCTAC DNA 2: GTAGGTAAGGCAAGGTCCATGGCCCATTTTTCTAATAGGATTACT; binds
